test system: Saccharomyces cerevisiae; test: protein stability index of tFT-peptide fusion (C-terminal peptide) (PSI (0-1 scale)); higher = more stable (slower turnover); conditions: genetic background: wild type; temperature: 30 C;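 note: PSI is a weighted mean of sequencing reads over stability bins, variants kept only with over 10 reads, mCherry proximal and sfGFP distal, peptide attached via GGGS linker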
Classification field: Yes = protein stability index at or over 0.6; No = protein stability index under 0.6.

- SEQUENCE: "ILYNIEKQQSSV"
  LABEL_CLASS: "Yes"
- SEQUENCE: "PPPLPLPSPPPS"
  LABEL_CLASS: "Yes"
- SEQUENCE: "EDYERETRKICK"
  LABEL_CLASS: "Yes"

Determine whether measured protein stability index meets or exceeds 0.6 for DVWEHLHKQHNM
No

Try this sequence too: GTTHHRRKPSYL
Yes

Try this sequence too: VSIVLHSVPCGG
No

Just for reference, the supplement of paper PMC10724198 is where these values come from.
